# TESTED SYSTEM: Zinc finger protein mex-5 (Caenorhabditis elegans) (UniProt Q9XUB2)
# Sequence (Q9XUB2 whole entry, looked up): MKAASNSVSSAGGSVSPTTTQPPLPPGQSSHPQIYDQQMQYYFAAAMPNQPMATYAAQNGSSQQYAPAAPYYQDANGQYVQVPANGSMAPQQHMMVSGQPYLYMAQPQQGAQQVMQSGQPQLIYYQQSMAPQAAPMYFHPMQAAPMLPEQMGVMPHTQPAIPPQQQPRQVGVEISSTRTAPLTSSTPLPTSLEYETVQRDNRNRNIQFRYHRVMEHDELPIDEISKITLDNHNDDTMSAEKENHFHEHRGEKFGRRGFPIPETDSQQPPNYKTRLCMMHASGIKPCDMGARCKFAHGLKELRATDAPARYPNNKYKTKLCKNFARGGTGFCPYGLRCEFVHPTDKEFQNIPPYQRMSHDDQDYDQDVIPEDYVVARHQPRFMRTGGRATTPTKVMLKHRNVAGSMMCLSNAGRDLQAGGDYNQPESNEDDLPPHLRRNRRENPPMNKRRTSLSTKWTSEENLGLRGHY
# PROCEDURE SUMMARY: MEX-5 zinc finger RNA-binding disruptors – biochemical, C. elegans, fluorescence polarization, MLPCN library, primary screen (AID 1832);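 further: 0% = DMSO and -100% = 5 µM competing unlabeled TCR2 RNA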
# TEST PARAMETERS: MEX-5/FITC-TCR2 RNA binding, at 10 µM
The campaign covered roughly 300,000 compounds. About 1,100 (0.37%) were called active.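 How the source made its calls: active means inhibition past about -25% in most replicates, and total fluorescence under double the plate's negative control median (limit read from the data); inconclusive means replicates evenly split on the limit, or fluorescence at least double controls; inactive means too little inhibition in most replicates.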 The full list was thinned out, with actives kept by preference.
Outcome codes: yes (1) for active, no (0) for inactive

INSERT INTO results (molecule, tested_system, class_assignment) VALUES
  ('Oc1ccc(-c2onc3ccc(Cl)cc23)cc1', 'Zinc finger protein mex-5 (Caenorhabditis elegans) (UniProt Q9XUB2)', 'no (0)'),
  ('c1ccc2c(c1)CCc1snnc1-2', 'Zinc finger protein mex-5 (Caenorhabditis elegans) (UniProt Q9XUB2)', 'no (0)'),
  ('Cc1nn(CC(=O)N2CCCCC2)c(=O)c2nn(-c3ccccc3)c(C)c12', 'Zinc finger protein mex-5 (Caenorhabditis elegans) (UniProt Q9XUB2)', 'no (0)'),
  ('CC(C)CC(=O)c1c[nH]c(C(=O)NCc2ccccc2)c1', 'Zinc finger protein mex-5 (Caenorhabditis elegans) (UniProt Q9XUB2)', 'no (0)'),
  ('Oc1[nH]c2ccc(Br)cc2c1N=Nc1nn[nH]n1', 'Zinc finger protein mex-5 (Caenorhabditis elegans) (UniProt Q9XUB2)', 'yes (1)'),
  ('Cc1ccc(C)n1C(Cc1ccccc1)C(=O)O (stereo unspecified)', 'Zinc finger protein mex-5 (Caenorhabditis elegans) (UniProt Q9XUB2)', 'yes (1)'),
  ('O=C(CNC(=O)Cc1ccccc1)N=Nc1c(O)[nH]c2ccc(Br)cc12', 'Zinc finger protein mex-5 (Caenorhabditis elegans) (UniProt Q9XUB2)', 'no (0)'),
  ('NS(=O)(=O)c1ccc(N=Nc2c(O)[nH]c3ccc(Br)cc23)cc1', 'Zinc finger protein mex-5 (Caenorhabditis elegans) (UniProt Q9XUB2)', 'no (0)'),
  ('Cc1nnc(SCc2ccc(C(=O)c3ccc(Cl)cc3)o2)n1-c1ccccc1', 'Zinc finger protein mex-5 (Caenorhabditis elegans) (UniProt Q9XUB2)', 'no (0)'),
  ('COc1ccc(NS(=O)(=O)c2cccc3nsnc23)cc1Cl', 'Zinc finger protein mex-5 (Caenorhabditis elegans) (UniProt Q9XUB2)', 'no (0)'),
  ('Cc1nn(C(C)C(=O)NCCC2=CCCCC2)c(=O)c2nn(-c3ccccc3)c(C)c12 (stereo unspecified)', 'Zinc finger protein mex-5 (Caenorhabditis elegans) (UniProt Q9XUB2)', 'no (0)');

====

# TESTED SYSTEM: Zinc finger protein mex-5 (Caenorhabditis elegans) (UniProt Q9XUB2)
# PROCEDURE SUMMARY: MEX-5 zinc finger RNA-binding disruptors – biochemical, C. elegans, fluorescence polarization, MLPCN library, primary screen (AID 1832);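 further: 0% = DMSO and -100% = 5 µM competing unlabeled TCR2 RNA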
# TEST PARAMETERS: MEX-5/FITC-TCR2 RNA binding, at 10 µM
Screen size: about 300,000 compounds; about 1,100 (0.37%) were called active.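 Rule for the calls: active = inhibition past about -25% in most replicates, and total fluorescence under double the plate's negative control median (limit read from the data); inconclusive = replicates evenly split on the limit, or fluorescence at least double controls; inactive = too little inhibition in most replicates.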 This excerpt belongs to a sample that is enriched for actives.
Possible outcomes: active, inactive

INSERT INTO results (compound, class_assignment) VALUES
  ('CCN(Cc1ccccc1)S(=O)(=O)c1cc2c3c(c1)CCN3C(=O)CC2', 'inactive'),
  ('CN(C)Cc1c(O)ccc2occ(C(O)c3ccccc3)c12 (stereo not drawn)', 'inactive'),
  ('O=C(Nc1ccc(OC(F)(F)F)cc1)c1ccc2c(c1)no[n+]2[O-]', 'inactive'),
  ('O=c1ccc(-c2ccc(S(=O)(=O)Nc3ccccc3)o2)n[nH]1', 'inactive'),
  ('COc1ccc(CC(=O)NCc2nnc(SCC(=O)Nc3ncc(C)s3)n2C)cc1', 'inactive'),
  ('Nc1ccc2nc3c(=O)[nH]c(=S)[nH]c3nc2c1', 'active'),
  ('Oc1c(Cl)cc(Cl)c(Cl)c1Cc1c(O)c(Cl)cc(Cl)c1Cl', 'active'),
  ('O=S(=O)(c1ccccc1)N1CCC(c2ccccc2)CC1', 'inactive'),
  ('Cc1c(C=O)c2ccccc2n1CC(=O)O', 'inactive'),
  ('CCOCCCNC(=O)C(NC(=O)CNC(=O)c1ccccc1)c1ccc(OC)cc1 (stereo not drawn)', 'inactive'),
  ('COCCCNCC(=O)Nc1sc(C)c(C)c1C(=O)OC', 'inactive'),
  ('N#CC1=C(N)C(C#N)(C#N)[C@H](c2ccsc2)[C@H]2COCC=C12', 'active'),
  ('O=C(COC(=O)c1ccc(F)cc1F)Nc1ncccn1', 'inactive'),
  ('CN(C)c1ccc(NC(=S)N(CCc2ccccc2)C2CC(=O)N(c3c(Cl)cccc3Cl)C2=O)cc1 (stereo not drawn)', 'inactive'),
  ('Cc1cc(NS(=O)(=O)c2ccc(NC(=S)NC(=O)c3ccc(F)cc3Cl)cc2)no1', 'inactive'),
  ('Cc1cc(NC(=O)CCC(=O)N(Cc2ccccc2)C(C(=O)NC2CCCC2)c2ccc(C)o2)no1 (stereo not drawn)', 'inactive'),
  ('Cc1ccc(C2NC(=S)NC3=C2N2CCC3CC2)cc1 (stereo not drawn)', 'inactive'),
  ('O=C(O)CCn1cc(/C=C/C(=O)c2ccc(Cl)cc2)c(-c2cccc(Br)c2)n1', 'inactive');
